Hey, just so you know, these numbers are from paper PMC10004157.

melting point values for the compounds below.

Use the examples below as a reference point.
compound	melting point
C[C@H](CO)Nc1nc(OCc2cccc(F)c2F)nc2cnccc12 [Compound 26b]	167 to 169 °C
OCCNc1nc(SCc2cccc(F)c2F)nc2cnccc12 [Compound 24d]	181 to 183 °C
C[C@H](CO)Nc1nc(SCc2cccc(F)c2F)nc2cnc(-n3ccnc3)cc12 [Compound 16b]	245 to 247 °C
C[C@H](CO)Nc1nc(SCCc2ccccc2)nc2cnccc12 [Compound 26d]	182 to 184 °C

Quick note, melting point for C[C@H](CO)Nc1nc(SCc2cccc(F)c2F)nc2cnc(-c3cccs3)cc12 [Compound 17d] landed at 176 to 178 °C

Quick note, melting point for OCCOc1nc(SCc2cccc(F)c2F)nc2cnccc12 [Compound 24e] landed at 181 to 183 °C

Quick note, melting point for C[C@H](CO)Nc1nc(NCc2cccc(F)c2F)nc2cnccc12 [Compound 26a] landed at 136 to 140 °C

Quick note, melting point for C[C@H](CO)Nc1nc(Sc2ccccc2)nc2cnccc12 [Compound 26c] landed at 193 to 196 °C

Quick note, melting point for CC(C)(CO)Nc1nc(SCc2cccc(F)c2F)nc2cnccc12 [Compound 24b] landed at 166 to 168 °C

Quick note, melting point for OCC(O)CNc1nc(SCc2cccc(F)c2F)nc2cnccc12 (centres unmarked) [Compound 24c] landed at 156 to 158 °C

Quick note, melting point for CCCCCCSc1nc(N[C@H](C)CO)c2ccncc2n1 [Compound 26e] landed at 147 to 149 °C

Quick note, melting point for C[C@H](CO)Nc1nc(SCc2cccc(F)c2F)nc2cncc(Cl)c12 landed at 146 to 148 °C

Quick note, melting point for C[C@H](CO)Nc1nc(SCc2cccc(F)c2F)nc2cnc(Cl)cc12 [Compound 16a] landed at 211 to 213 °C

Quick note, melting point for C[C@H](CO)Nc1nc(SCc2cccc(F)c2F)nc2cnc(-c3ccccc3)cc12 [Compound 17a] landed at 202 to 204 °C
